ASSAY PROCEDURE: Probe fluorescence ratio response to linolenic acid relative to ADIFAB2
Format: binding
EXPERIMENTAL CONDITIONS: response relative to ADIFAB2
Excerpt: In an alternate preferred embodiment, the protein is rI-FABP that has Ala substituted for Leu at position 72 (rI-FABP-L72A) with the resulting probe named ADIFAB2. […] ADIFAB2 also has an altered spectral response, making it especially useful for measurements of FFAu in blood samples (Apple et al, Clinical Proteomics, (2004) 1:41-44, U.S. patent application Ser. No. 10/670,958). […] The baseline value for this ratio, measured in the absence of analyte, is designated R0. […]
Known DR/DR LNA of a selection of molecules
QUANTITY NAME: DR/DR LNA

{"columns": ["MOLECULE", "QUANTITY NAME", "RESULT VALUE"],
 "data": [
  ["38Y1, 72A (protein, listed as Rattus norvegicus, PEPTIDE (1)...(131) wild-type rat intestinal fatty acid binding protein) AFDGTWKVDRNENYEKFMEKMGINVVKRKLGAHDNLKYTITQEGNKFTVKESSNFRNIDVVFELGVDFAYSAADGTELTGTWTMEGNKLVGKFKRVDNGKELIAVREISGNELIQTYTYEGVEAKRIFKKE", "DR/DR LNA", 1.88],
  ["23F2, 72A (protein, listed as Rattus norvegicus, PEPTIDE (1)...(131) wild-type rat intestinal fatty acid binding protein) AFDGTWKVDRNENYEKFMEKMGFNVVKRKLGAHDNLKLTITQEGNKFTVKESSNFRNIDVVFELGVDFAYSAADGTELTGTWTMEGNKLVGKFKRVDNGKELIAVREISGNELIQTYTYEGVEAKRIFKKE", "DR/DR LNA", 0.17],
  ["17P, 72A (protein, listed as Rattus norvegicus, PEPTIDE (1)...(131) wild-type rat intestinal fatty acid binding protein) AFDGTWKVDRNENYEKPMEKMGINVVKRKLGAHDNLKLTITQEGNKFTVKESSNFRNIDVVFELGVDFAYSAADGTELTGTWTMEGNKLVGKFKRVDNGKELIAVREISGNELIQTYTYEGVEAKRIFKKE", "DR/DR LNA", 0.63]
]}
